Origin of the recorded values: patent US20120219562A1

Quick list: koff per entry.
Target: T1, human interleukin 12 (p70 heterodimer of p35 and p40) (human, UniProt P29459 23-219; P29460 23-328)
T1 construct: Recombinant human IL-12; also called hIL-12; IL-12
T1 sequence (looked up) 1: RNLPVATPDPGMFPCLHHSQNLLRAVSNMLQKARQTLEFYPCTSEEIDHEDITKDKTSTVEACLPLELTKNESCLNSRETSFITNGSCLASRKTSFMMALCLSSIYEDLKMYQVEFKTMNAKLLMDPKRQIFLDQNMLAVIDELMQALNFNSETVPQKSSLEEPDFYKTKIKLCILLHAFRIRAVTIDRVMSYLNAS
T1 sequence (looked up) 2: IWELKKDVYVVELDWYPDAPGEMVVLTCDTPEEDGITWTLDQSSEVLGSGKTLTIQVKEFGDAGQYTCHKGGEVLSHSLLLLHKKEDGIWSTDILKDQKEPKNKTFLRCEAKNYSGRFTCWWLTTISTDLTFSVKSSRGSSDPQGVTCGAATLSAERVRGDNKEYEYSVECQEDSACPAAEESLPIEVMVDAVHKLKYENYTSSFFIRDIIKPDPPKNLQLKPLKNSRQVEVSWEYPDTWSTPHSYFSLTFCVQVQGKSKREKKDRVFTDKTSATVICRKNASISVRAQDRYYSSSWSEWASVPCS
Assay: SPR (BIAcore), off-rate
Express your answer in s⁻¹, writing the number without its unit.

SEQ ID NO: 512 (Y61, K at L50) (antibody, V domains shown) VH: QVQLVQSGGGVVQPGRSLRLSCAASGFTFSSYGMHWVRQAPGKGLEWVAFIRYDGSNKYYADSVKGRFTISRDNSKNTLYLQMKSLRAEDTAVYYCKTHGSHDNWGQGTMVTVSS VL: SYVLTQPPSVSGTPGQRVTISCSGGRSNIGSNTVKWYQQLPGTAPKLLIYKNDQRPSGVPDRFSGSKSGTSASLAITGVQAEDEADYYCQSYDRGTHPALLFGTGTKVTVLG	0.00243
SEQ ID NO: 515 (Y61, Q at L50) (antibody, V domains shown) VH: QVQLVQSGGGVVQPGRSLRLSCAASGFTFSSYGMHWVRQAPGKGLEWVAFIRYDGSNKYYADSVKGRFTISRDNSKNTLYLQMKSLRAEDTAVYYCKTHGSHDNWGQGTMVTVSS VL: SYVLTQPPSVSGTPGQRVTISCSGGRSNIGSNTVKWYQQLPGTAPKLLIYQNDQRPSGVPDRFSGSKSGTSASLAITGVQAEDEADYYCQSYDRGTHPALLFGTGTKVTVLG	0.000348
SEQ ID NO: 531 (Y61, A at L53) (antibody, V domains shown) VH: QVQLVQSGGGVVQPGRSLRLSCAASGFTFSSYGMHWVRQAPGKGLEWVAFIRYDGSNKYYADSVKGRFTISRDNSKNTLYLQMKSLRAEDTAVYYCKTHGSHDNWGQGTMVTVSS VL: SYVLTQPPSVSGTPGQRVTISCSGGRSNIGSNTVKWYQQLPGTAPKLLIYGNDARPSGVPDRFSGSKSGTSASLAITGVQAEDEADYYCQSYDRGTHPALLFGTGTKVTVLG	0.000554
SEQ ID NO: 521 (Y61, L at L50) (antibody, V domains shown) VH: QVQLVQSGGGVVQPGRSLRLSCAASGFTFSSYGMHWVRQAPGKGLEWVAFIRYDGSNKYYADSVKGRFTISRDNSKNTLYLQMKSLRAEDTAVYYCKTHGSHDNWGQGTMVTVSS VL: SYVLTQPPSVSGTPGQRVTISCSGGRSNIGSNTVKWYQQLPGTAPKLLIYLNDQRPSGVPDRFSGSKSGTSASLAITGVQAEDEADYYCQSYDRGTHPALLFGTGTKVTVLG	0.000616

Which koff value belongs to SEQ ID NO: 511 (Y61, H at L50) (antibody, V domains shown) VH: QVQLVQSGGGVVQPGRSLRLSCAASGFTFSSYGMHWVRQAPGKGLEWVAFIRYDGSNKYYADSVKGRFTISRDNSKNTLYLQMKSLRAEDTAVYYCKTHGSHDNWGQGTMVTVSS VL: SYVLTQPPSVSGTPGQRVTISCSGGRSNIGSNTVKWYQQLPGTAPKLLIYHNDQRPSGVPDRFSGSKSGTSASLAITGVQAEDEADYYCQSYDRGTHPALLFGTGTKVTVLG ? 0.000761
